Each recorded value in this set is attributed to ChEMBL document CHEMBL1135763.

- System: Mus musculus
- method.description: At a dose 50 mg/kg (114 umol/kg) was administered intraperitoneally to mice and was evaluated for area under curve (AUCtot)
- Assay type: ADME, organism-based
- Set-up: time AUCmax, dose 50 mg/kg, route intraperitoneal
- settings: in vivo, ip
endpoint.name: AUC (µM·h)
Provide only the numeric value, understood in µM·h.

Prompt: Lab note: need AUC with Mus musculus for entry `CCc1cnc(CSc2cnc(NC(=O)Cc3cccnc3)s2)o1` , please look it up.
Completion: 23

---

- tested.target: Cyclin-dependent kinase 1/cyclin B (Homo sapiens)
- method.description: Inhibitory activity against baculovirus expressed Cyclin dependent kinase 1-cyclinB
- Type: protein-complex assay
Response field label: string, one of class 1 (IC50 strictly below 80 nM) or class 0.

Prompt: Is IC50 strictly under 80 nM for the entry `CC(C)(C)c1cnc(CSc2cnc(NC(=O)Nc3c(Cl)cccc3Cl)s2)o1` ?
Completion: class 1

Prompt: How about `CC(C)C(=O)Nc1ncc(SCc2ncc(C(C)(C)C)o2)s1` ?
Completion: class 1

Prompt: How about CC(C)C(=O)Nc1ncc([S+]([O-])Cc2ncc(C(C)(C)C)o2)s1 (configuration not stated) ?
Completion: class 0

Prompt: How about `CC(=O)Nc1ncc(SCC(=O)OCc2ccccc2)s1` ?
Completion: class 0

Prompt: How about `CC(C)OC(=O)Nc1ncc(SCc2ncc(C(C)(C)C)o2)s1` ?
Completion: class 1

Prompt: How about `CCc1cnc(CSc2cnc(NC(C)=O)s2)o1` ?
Completion: class 0

Prompt: How about `CCc1cnc(CSc2cnc(NC(=O)C(C)C)s2)o1` ?
Completion: class 1

Prompt: How about `CC(C)(C)c1cnc(CSc2cnc(NC(=O)Nc3ccc(F)cc3)s2)o1` ?
Completion: class 1

Prompt: How about `CC(=O)Nc1ncc(SCc2ncc(CC3CCCCC3)o2)s1` ?
Completion: class 1

Prompt: How about `CC(=O)Nc1ncc(SCc2ncc(C(C)C)o2)s1` ?
Completion: class 1

Prompt: How about `CC(C)(C)C(=O)Nc1ncc(SCc2ncc(C(C)(C)C)o2)s1` ?
Completion: class 0
